Listed molecules paired with reported inhibition
- Tested on: CV-1
- experimental_details: Inhibition of gamma-secretase expressed in african green monkey CV1 cells coexpressing Gal4 DNA-binding/transactivation domain assessed as inhibition of notch processing by luciferase reporter assay at 20 uM
- Type: cell-based
Give the number; % is assumed, so skip it.

Worked examples, 4 molecules total:
CC[C@H](c1ccc(C(F)(F)F)nc1)N1CC[C@@H](CC(=O)[O-])C[C@H]1c1ccc(C(F)(F)F)cc1.[Na+]    10
CC(C)CC[C@H](c1cnc(C(F)(F)F)cn1)N1CC[C@@H](CC(=O)[O-])C[C@H]1c1ccc(C(F)(F)F)cc1.[Na+]    21
CCC[C@@H](C(=O)O)c1cc(OCc2ccccc2)cc(-c2ccc(C(F)(F)F)cc2)c1    20
O=C([O-])C[C@@H]1CCN([C@H](CCc2ccccc2)c2ccc(C(F)(F)F)nc2)[C@H](c2ccc(C(F)(F)F)cc2)C1.[Na+]    32

Q: Identify measured inhibition obtained with CV-1 for CC(C)CC[C@H](c1ncc(C(C)C)cn1)N1CC[C@@H](CC(=O)[O-])C[C@H]1c1ccc(C(F)(F)F)cc1.[Na+] .
Ans: 27

Q: Write down the reported inhibition (system: CV-1) of CC(C)[C@H](c1ccc(C(F)(F)F)nc1)N1CC[C@@H](CC(=O)[O-])C[C@H]1c1ccc(C(F)(F)F)cc1.[Na+]
Ans: 21

Q: Return reported inhibition for target or system CV-1, item CC(C)CC[C@H](c1ccc(C(F)(F)F)nc1)N1CC[C@@H](CC(=O)[O-])C[C@H]1c1ccc(C(F)(F)F)cc1.[Na+] .
Ans: 24

----------
- experimental_details: Oral bioavailability in mouse at 10 mg/kg
- Type: ADME, organism-based
- assay_conditions: in vivo
readout_label: bioavailability

Q: For the molecule CC(C)CC[C@H](c1ccc(C(F)(F)F)nc1)N1CC[C@@H](CC(=O)[O-])C[C@H]1c1ccc(C(F)(F)F)cc1.[Na+] , give its reported bioavailability.
Ans: > 100%

----------
- experimental_details: Half life in rat at 1 mg/kg, iv and 2 mg/kg, po
- Assay type: ADME, organism-based
- assay_conditions: in vivo
readout_label: half-life

Q: Kindly indicate its recorded half-life. Item: CC(C)CC[C@H](c1ncc(C(F)(F)F)cn1)N1CC[C@@H](CC(=O)[O-])C[C@H]1c1ccc(C(F)(F)F)cc1.[Na+]
Ans: 3 h

----------
Below is a list of entries, each paired with its recorded pIC50 value.
- measurement_target: Gamma-secretase
- experimental_details: Inhibition of gamma-secretase in human SHSY5Y cells expressing human recombinant APP assessed as amyloid beta42 formation by ELISA
- Assay type: cell-based
- assay_conditions: sh-sy5y; in the assay text read “amyloid beta40 formation” for “amyloid beta42 formation”
Could you keep your reply to the number by itself?

Past entries and their recorded results:
CC(C)C[C@H](c1ccc(C(F)(F)F)nc1)N1CC[C@@H](CC(=O)[O-])C[C@H]1c1ccc(C(F)(F)F)cc1.[Na+]    4.5
CC(C)CC[C@H](c1ccnc(C(F)(F)F)n1)N1CC[C@@H](CC(=O)[O-])C[C@H]1c1ccc(C(F)(F)F)cc1.[Na+]    4.9
CCCC[C@H](c1ccc(C(F)(F)F)nc1)N1CC[C@@H](CC(=O)[O-])C[C@H]1c1ccc(C(F)(F)F)cc1.[Na+]    4.8

Q: Hello, please tell me recorded pIC50 for this one: CC(C)CC[C@H](c1ccc(C(F)(F)F)nc1)N1CC[C@@H](CC(=O)[O-])C[C@H]1c1ccc(C(F)(F)F)cc1.[Na+]
Ans: 5.2

----------
Recorded Vd for the following compounds
- experimental_details: Volume of distribution at steady state in dog at 1 mg/kg, iv and 1 mg/kg, po
- Format: ADME, organism-based, Canis lupus familiaris
- assay_conditions: in vivo, read-out: Vdss
Number only, in L/kg; omit the unit.

Q: Give a short answer stating reported Vd for CC(C)CC[C@H](c1ncc(C(F)(F)F)cn1)N1CC[C@@H](CC(=O)[O-])C[C@H]1c1ccc(C(F)(F)F)cc1.[Na+] .
Ans: 1.2

Q: Give the reported Vd for this compound. CC(C)CC[C@H](c1ccc(C(F)(F)F)nc1)N1CC[C@@H](CC(=O)[O-])C[C@H]1c1ccc(C(F)(F)F)cc1.[Na+]
Ans: 1.1

----------
- measurement_target: Gamma-secretase
- experimental_details: Inhibition of gamma-secretase in human SHSY5Y cells expressing human recombinant APP assessed as decrease in total Abeta level after 24 hrs by DELFIA
- Format: cell-based
- assay_conditions: sh-sy5y
Some molecules, each annotated with its measured pIC50.

CC(C)CC[C@H](c1ccc(C(F)(F)F)nc1)N1CC[C@@H](CC(=O)[O-])C[C@H]1c1ccc(C(F)(F)F)cc1.[Na+]    4

Q: Given O=C(O)Cc1ccc(-c2ccc(C(F)(F)F)cc2)c(-c2ccc(C(F)(F)F)cc2)c1 , report its pIC50 on Gamma-secretase.
Ans: < 4

Q: Specify the recorded pIC50 for CC(C)[C@H](O)C(=O)N[C@@H](C)C(=O)N[C@@H]1C(=O)N(C)CCc2ccccc21 , system: Gamma-secretase.
Ans: 7

Q: Fetch value of pIC50 on Gamma-secretase for O=C([O-])C[C@@H]1CCN([C@@H](c2ccc(C(F)(F)F)nc2)C2CC2)[C@H](c2ccc(C(F)(F)F)cc2)C1.[Na+] .
Ans: < 4

Q: Identify measured pIC50 obtained with Gamma-secretase for CCCC[C@H](c1ccc(C(F)(F)F)nc1)N1CC[C@@H](CC(=O)[O-])C[C@H]1c1ccc(C(F)(F)F)cc1.[Na+] .
Ans: < 4

Q: Under Gamma-secretase, report pIC50 for CCCCCC[C@H](c1ccc(C(F)(F)F)nc1)N1CC[C@@H](CC(=O)[O-])C[C@H]1c1ccc(C(F)(F)F)cc1.[Na+]
Ans: 4

Q: # assay system Gamma-secretase: give pIC50 of CCC[C@@H](C(=O)O)c1cc(OCc2ccccc2)cc(-c2ccc(C(F)(F)F)cc2)c1
Ans: < 4

Q: Would you please give the reported pIC50 of CC(C)[C@H](c1ccc(C(F)(F)F)nc1)N1CC[C@@H](CC(=O)[O-])C[C@H]1c1ccc(C(F)(F)F)cc1.[Na+] with Gamma-secretase?
Ans: < 4

----------
Recorded pIC50 for the following compounds
- measurement_target: Gamma-secretase
- experimental_details: Inhibition of gamma-secretase in human SHSY5Y cells expressing human recombinant APP assessed as amyloid beta40 formation by ELISA
- Format: cell-based
- assay_conditions: sh-sy5y; in the assay text read “amyloid beta42 formation” for “amyloid beta40 formation”
Keep it simple and answer with nothing but the number.

O=C([O-])C[C@@H]1CCN([C@H](Cc2ccccc2)c2ccc(C(F)(F)F)nc2)[C@H](c2ccc(C(F)(F)F)cc2)C1.[Na+]    5.8

Q: Give pIC50; test system Gamma-secretase; compound CC(C)[C@H](O)C(=O)N[C@@H](C)C(=O)N[C@@H]1C(=O)N(C)CCc2ccccc21
Ans: 7.4

Q: Please look at O=C([O-])C[C@@H]1CCN([C@H](CCc2ccccc2)c2ccc(C(F)(F)F)nc2)[C@H](c2ccc(C(F)(F)F)cc2)C1.[Na+] and tell me its recorded pIC50 on Gamma-secretase.
Ans: 5.7

Q: Please indicate recorded pIC50 of O=C([O-])C[C@@H]1CCN([C@@H](c2ccc(C(F)(F)F)nc2)C2CCCCC2)[C@H](c2ccc(C(F)(F)F)cc2)C1.[Na+] measured with Gamma-secretase.
Ans: 5.4

Q: State measured pIC50 of the compound CC[C@H](c1ccc(C(F)(F)F)nc1)N1CC[C@@H](CC(=O)[O-])C[C@H]1c1ccc(C(F)(F)F)cc1.[Na+] with Gamma-secretase.
Ans: 5

Q: Report value only: pIC50, Gamma-secretase, CC(C)CC[C@H](c1ccc(C2CC2)nc1)N1CC[C@@H](CC(=O)[O-])C[C@H]1c1ccc(C(F)(F)F)cc1.[Na+]
Ans: 6.2

Q: Lab note: record pIC50 of O=C([O-])C[C@@H]1CCN([C@H](c2ccc(C(F)(F)F)cc2)c2ccc(C(F)(F)F)nc2)[C@H](c2ccc(C(F)(F)F)cc2)C1.[Na+] tested on Gamma-secretase.
Ans: 5.9

----------
- measurement_target: Gamma-secretase
- experimental_details: Inhibition of gamma-secretase in human SHSY5Y cells expressing human recombinant APP assessed as amyloid beta42 formation by ELISA
- Format: cell-based
- assay_conditions: sh-sy5y; in the assay text read “amyloid beta40 formation” for “amyloid beta42 formation”
readout_label: pIC50

O=C(O)Cc1ccc(-c2ccc(C(F)(F)F)cc2)c(-c2ccc(C(F)(F)F)cc2)c1    < 4.7

Now examine the next entry.
Q: In one line, give reported pIC50 of the entry CC(C)CC[C@H](c1ccc(C2CC2)nc1)N1CC[C@@H](CC(=O)[O-])C[C@H]1c1ccc(C(F)(F)F)cc1.[Na+] .
Ans: < 4.7
